measurementTarget: Human KIF18A (amino acid sequence 1-417) (Homo sapiens)
Sequence (Q8NI77 1-417): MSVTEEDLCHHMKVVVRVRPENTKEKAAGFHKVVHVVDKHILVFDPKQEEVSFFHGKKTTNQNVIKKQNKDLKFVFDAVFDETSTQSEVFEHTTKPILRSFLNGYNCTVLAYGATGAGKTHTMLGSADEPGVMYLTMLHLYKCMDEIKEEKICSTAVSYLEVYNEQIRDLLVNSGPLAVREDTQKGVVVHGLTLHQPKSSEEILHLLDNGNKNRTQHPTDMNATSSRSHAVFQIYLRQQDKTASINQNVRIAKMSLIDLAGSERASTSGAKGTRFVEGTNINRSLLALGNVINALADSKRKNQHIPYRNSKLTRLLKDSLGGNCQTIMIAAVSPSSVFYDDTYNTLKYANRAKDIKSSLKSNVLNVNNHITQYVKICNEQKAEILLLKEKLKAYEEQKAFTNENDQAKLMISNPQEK
assay: Enzymatic Activity Test (ADP-Glo, microtubule-stimulated KIF18A ATPase)
conditionSummary: 60 µg/mL microtubules, 25 µM ATP, 2.5 nM KIF18A protein, 120 min at ambient temperature, chemiluminescence; read-out: KIF 18A IC50
experimentalReadout: IC50 (nM)
Numeric answer only, unit nM assumed.

// below: answered compounds
Query block: IC50 for Cc1cc2nc(n1)N1CCCC(C=CCCC3CCN(CC3)c3cc(NS(=O)(=O)CCO)ccc3C(=O)N2)C1 (stereo not drawn) [Example 6] ?
Result block: 89

Query block: IC50 for Cc1cc2nc(n1)N1CCCC(CCCC3CCN(CC3)c3cc(NS(=O)(=O)CCO)ccc3C(=O)N2)C1 (stereo not drawn) [Example 3] ?
Result block: 98

Okay, next one:
Query block: IC50 for COc1cc2nc(n1)N1CCC(F)(F)C(C=CCC3CCN(CC3)c3cc(NS(=O)(=O)CCO)ccc3C(=O)N2)C1 (stereo not drawn) [Example 24] ?
Result block: 158

These measurements were taken from patent EP4755892A1.
